Please respond with reported Plant response rating for every item in the list.
tested on: canarygrass (Phalaris minor); experiment: Test D pre-/postemergence controlled growth environment herbicide test; type: in vivo; settings: Postemergence, 62 g ai/ha, scale 0 to 100
Numbers only.

Would you please look over these solved cases?
Reported Plant response rating ( Cc1cc(=O)n(-c2ccc(F)cc2)nc1Cc1ccnc(C(F)(F)F)c1 [Compound 1] ) = 10

Reported Plant response rating ( COc1cc(=O)n(-c2ccc(F)cc2)nc1Cc1ccnc(C(F)(F)F)c1 [Compound 17] ) = 20

Reported Plant response rating ( Cc1cc(=O)n(-c2ccc(C(F)(F)F)cc2)nc1Cc1ccnc(C(F)(F)F)c1 [Compound 2] ) = 20

Now, please, on to the next molecule.
Reported Plant response rating ( Cc1cc(=O)n(-c2ccc(F)cc2)nc1Oc1ccnc(C(F)(F)F)c1 [Compound 14] ) = 15

----------
Please respond with reported Plant response rating for every item in the list.
system: pigweed (Amaranthus retroflexus); assay: Test D pre-/postemergence controlled growth environment herbicide test; type: in vivo; details: Postemergence, 62 g ai/ha, scale 0 to 100
Description: […]
Answers are plain numbers.

Would you please look over these solved cases?
Reported Plant response rating ( Cc1cc(=O)n(-c2ccc(F)cc2)nc1Cc1ccnc(C(F)(F)F)c1 [Compound 1] ) = 30

Reported Plant response rating ( Cc1cc(=O)n(-c2ccc(C(F)(F)F)cc2)nc1Cc1ccnc(C(F)(F)F)c1 [Compound 2] ) = 20

Reported Plant response rating ( Cc1cc(=O)n(-c2ccc(F)cc2)nc1Oc1ccnc(C(F)(F)F)c1 [Compound 14] ) = 70

Now, please, on to the next compound.
Reported Plant response rating ( COc1cc(=O)n(-c2ccc(F)cc2)nc1Cc1ccnc(C(F)(F)F)c1 [Compound 17] ) = 30

----------
Please respond with reported Plant response rating for every item in the list.
system: oat, wild (wild oat, Avena fatua); experiment: Test C pre-/postemergence greenhouse herbicide test; assay type: in vivo; conditions: Postemergence, 250 g ai/ha

Would you please look over these solved cases?
Reported Plant response rating ( `Cc1cc(=O)n(-c2ccc(F)cc2)nc1Cc1ccnc(C(F)(F)F)c1` ) = 5

Reported Plant response rating ( `COc1cc(=O)n(-c2ccc(C(F)(F)F)cc2)nc1Cc1ccnc(C(F)(F)F)c1` ) = 60

Reported Plant response rating ( `COc1cc(=O)n(-c2ccc(F)cc2)nc1Cc1ccnc(C(F)(F)F)c1` ) = 45

Reported Plant response rating ( `Cc1cc(Oc2ccnc(C(F)(F)F)c2)nn(-c2ccc(C(F)(F)F)cc2)c1=O` ) = 50

# return Plant response rating for each item in the list
1. Cc1cc(=O)n(-c2ccc(F)cc2)nc1Oc1ccnc(C(F)(F)F)c1
2. Cc1cc(=O)n(-c2ccc(C(F)(F)F)cc2)nc1Cc1ccnc(C(F)(F)F)c1

30
5

----------
Please respond with reported Plant response rating for every item in the list.
test system: barley, spring (spring barley, Hordeum vulgare); test: Test D pre-/postemergence controlled growth environment herbicide test; format: in vivo; conditions: Preemergence, 250 g ai/ha, scale 0 to 100
Give bare numbers.

Would you please look over these solved cases?
Reported Plant response rating ( `COc1cc(=O)n(-c2ccc(F)cc2)nc1Cc1ccnc(C(F)(F)F)c1` ) = 70

Reported Plant response rating ( `Cc1cc(=O)n(-c2ccc(F)cc2)nc1Cc1ccnc(C(F)(F)F)c1` ) = 30

Reported Plant response rating ( `Cc1cc(=O)n(-c2ccc(C(F)(F)F)cc2)nc1Cc1ccnc(C(F)(F)F)c1` ) = 25

Next:
Reported Plant response rating ( `Cc1cc(=O)n(-c2ccc(F)cc2)nc1Oc1ccnc(C(F)(F)F)c1` ) = 5

Just for reference, patent US10202361B2 is where these values come from.
